target: Cytochrome P450 2C9 (Homo sapiens); assay: Cytochrome panel assay with activity outcomes; details: recombinant CYP, pro-luciferin dealkylation, luminescence, p450-cyp2c9; series mostly up to 57.1 µM
In all, about 16,000 compounds went through this assay and about 4,000 (25%) were called active. Roughly 26% stayed inconclusive and do not appear here. Not all results are given here.
MEASURED_PROPERTY: AC50

MOLECULE	VALUE_REPORTED
CCCN(C/C=C\I)[C@@H]1CCc2cccc(O)c2C1	inactive
Cc1ccccc1Cn1cnc2c(cnn2C(C)(C)C)c1=O	15.8 µM (active)
Cc1ccc(-n2ncc3c(=O)n(CC(=O)NCC4CCCO4)cnc32)cc1 (stereo unspecified)	inactive
Clc1ccc([C@H](Cn2ccnc2)OCc2csc3c(Cl)cccc23)c(Cl)c1	0.316 µM (active)
Cn1cccc1C(=O)N1CCC2(CC1)CN(c1ccccn1)C2	inactive
Cc1nnc(-c2cnn(-c3ccccc3)c2N)n1Cc1ccncc1	14.1 µM (active)
Clc1ccc(COC(Cn2ccnc2)c2ccc(Cl)cc2Cl)c(Cl)c1 (stereo unspecified)	0.316 µM (active)
O=S(=O)(Cc1cc(Oc2ccccc2)nc(-c2ccccc2)n1)c1ccccc1	0.891 µM (active)
Cc1ccc(NC(=O)Cn2cnc3c(cnn3C(C)(C)C)c2=O)cc1	10 µM (active)
COCCNC(=O)c1onc(CSc2ccccc2F)c1C(=O)O	15.8 µM (active)

Let us move to another entry and its AC50.
Measured AC50 of Cn1nc(C(F)(F)F)c(/C=N/OCc2c(Cl)cccc2Cl)c1Cl : 1.58 µM (active)

---

target: Cytochrome P450 2C9 (Homo sapiens) (UniProt P11712); experiment: Cytochrome panel assay with activity outcomes; details: recombinant CYP, pro-luciferin dealkylation, luminescence, p450-cyp2c9; series mostly up to 57.1 µM
Sequence (P11712 whole entry, looked up): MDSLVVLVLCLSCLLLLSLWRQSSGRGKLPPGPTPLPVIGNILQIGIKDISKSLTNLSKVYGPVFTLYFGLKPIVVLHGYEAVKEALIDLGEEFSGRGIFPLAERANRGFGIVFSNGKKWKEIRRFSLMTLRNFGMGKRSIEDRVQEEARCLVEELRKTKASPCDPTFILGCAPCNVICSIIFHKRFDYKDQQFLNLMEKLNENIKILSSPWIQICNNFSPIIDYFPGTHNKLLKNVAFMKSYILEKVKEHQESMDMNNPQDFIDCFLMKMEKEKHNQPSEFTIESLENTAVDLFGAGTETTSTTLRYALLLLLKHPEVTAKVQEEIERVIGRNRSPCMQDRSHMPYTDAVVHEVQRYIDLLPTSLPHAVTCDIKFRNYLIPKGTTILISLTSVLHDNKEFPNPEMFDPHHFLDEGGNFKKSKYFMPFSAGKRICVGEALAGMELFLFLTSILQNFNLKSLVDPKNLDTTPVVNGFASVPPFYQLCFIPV
Hit rate of the full screen: of about 16,000 compounds, about 4,000 (25%) were called active. Inconclusive results (about 26%) are left out. A selection follows.
MEASURED_PROPERTY: AC50

COMPOUND	MEASURED_TARGET	MEASURED_PROPERTY	VALUE_REPORTED
C/C(=N\N=C(c1ccccc1)c1ccccc1)c1cccs1	Cytochrome P450 2C9 (Homo sapiens) (UniProt P11712)	AC50	0.708 µM (active)
CCC(=O)Nc1c2c(nc3c1CCC3)CCCC2	Cytochrome P450 2C9 (Homo sapiens) (UniProt P11712)	AC50	inactive
CC1=NN(c2ccc(F)cc2)C(=O)C1C(c1cccc(O)c1)c1c(C)[nH]n(-c2ccc(F)cc2)c1=O (configuration not stated)	Cytochrome P450 2C9 (Homo sapiens) (UniProt P11712)	AC50	4.47 µM (active)
Cc1ccc(CS(=O)(=O)CCC(=O)NCCCN2CCCC2)cc1	Cytochrome P450 2C9 (Homo sapiens) (UniProt P11712)	AC50	inactive
COc1cccc2c(=O)c(C(=O)NCc3cccs3)c[nH]c12	Cytochrome P450 2C9 (Homo sapiens) (UniProt P11712)	AC50	6.31 µM (active)
C[C@](N)(Cc1ccc(O)c(O)c1)C(=O)O	Cytochrome P450 2C9 (Homo sapiens) (UniProt P11712)	AC50	inactive
COc1ccc(C(O)P(=O)(OC(C)C)OC(C)C)cc1OC (configuration not stated)	Cytochrome P450 2C9 (Homo sapiens) (UniProt P11712)	AC50	7.94 µM (active)
Cc1cc(=O)[nH]c(-n2[nH]c3c(c2=O)CCCC3)n1	Cytochrome P450 2C9 (Homo sapiens) (UniProt P11712)	AC50	inactive

The reported value for CCN(CC)CCC[C@H](C)Nc1c2ccc(Cl)cc2nc2ccc(OC)cc12 in terms of AC50 is inactive

Notebook: C[C@@H](C(=O)Nc1ccc2ccccc2c1)[C@H]1C[C@]1(C)[C@H](NC(=O)c1cnccn1)c1ccccc1 , AC50 read as 5.01 µM (active)

Per the record, C/C(=N\N=C1\NC(=O)CC(C(=O)O)S1)c1cccs1 (configuration not stated) has AC50 of inactive

Lab book: AC50 of COc1cccc(CN2C(=O)N(C(C)C)C(N(O)C(=O)NC(C)C)C2(C)C)c1OC (configuration not stated) noted as 15.8 µM (active)

Recorded AC50 (compound CCCc1cc2c(n1Cc1ccc(OC)cc1)C(C)C1CN(C(=O)c3ccccc3)C(C)(C(=O)OC)C21 (configuration not stated) ): 12.6 µM (active)

---

molecular target: Cytochrome P450 2C9 (Homo sapiens) (UniProt P11712); assay: Cytochrome panel assay with activity outcomes; settings: recombinant CYP, pro-luciferin dealkylation, luminescence, p450-cyp2c9; series mostly up to 57.1 µM
Screen size: about 16,000 compounds; about 4,000 (25%) were called active. Inconclusive results (about 26%) are left out. Calls come from the whole dose curve; as a rule, active = well fitted curve in the direction sought with a large enough effect; inconclusive = small, poorly fitted or top-dose-only effect, or effect the other way; inactive = no such curve, though single readings can be large or run the other way. A selection follows.
// one of 1 for active, -1 for inactive, no free text

Answered examples (4):
SAMPLE_SMILES	CLASS_LABEL
CC(C)(C)c1nc(SCC(=O)Nc2ccc(N3CCOCC3)cc2)c2ccccc2n1	1
COc1cccc(NC(=O)CSc2nnc(CN3CCOCC3)n2C)c1	-1
CCN(CC)C(=O)CSc1nc2ccc(NC(=O)CSc3nnc(COc4ccccc4C)n3C)cc2s1	1
COc1cc(N)c(Cl)cc1C(=O)OCCCN1CCCCC1	-1

Shifting focus to the compound that follows.
Which outcome was assigned to Cn1c(CCC(=O)Nc2ccc(N3CCOCC3)cc2)nc(=O)c2ccccc21 in this test?
-1

---

Target: Cytochrome P450 2C9 (Homo sapiens)
Assay: Cytochrome panel assay with activity outcomes
Settings: recombinant CYP, pro-luciferin dealkylation, luminescence, p450-cyp2c9; series mostly up to 57.1 µM
Experimental: The P450 gene superfamily is involved in the metabolism and clearance of xenobiotics. This assay used various human CYP P450 isozymes to measure the dealkylation of various pro-luciferin substrates to luciferin. The luciferin is then measured by luminescence after the addition of a luciferase detection reagent. […] Inhibitors and some substrates limit the production of luciferin, and decrease measured luminescence. […] 8, Detection, 1 sec, ViewLux luminescent read […]
The campaign covered roughly 16,000 compounds. About 4,000 (25%) were called active. Another 26% or so got no clear call; they are omitted. Calls follow the shape of the dose curve; as a rule, active = well fitted curve in the direction sought with a large enough effect; inconclusive = small, poorly fitted or top-dose-only effect, or effect the other way; inactive = no such curve, though single readings can be large or run the other way. A selection follows.
Give one outcome, nothing more. List: active, inactive

Please review the following examples before continuing.
COMPOUND	CLASS_LABEL
Cc1cc(C(F)F)n2nc(C(=O)Nc3sc4c(c3C#N)CCC(C)C4)nc2n1 (stereo not given)	inactive
O=C(Nc1cccc(NC(=O)c2ccccc2[N+](=O)[O-])n1)c1ccccc1[N+](=O)[O-]	active
CC(=O)N1CCN(c2nc(C)nc3sc4c(c23)CCC(C)C4)CC1 (stereo not given)	active
Cc1cccc(NC(=O)c2ccc([N+](=O)[O-])o2)n1	inactive

Here is another compound to look at.
Could you kindly confirm the outcome this assay logged for CN1CCC2(CC1)CCN(S(=O)(=O)c1ccccc1)CC2 ?
inactive

---

biological target: Cytochrome P450 2C9 (Homo sapiens); assay: Cytochrome panel assay with activity outcomes; conditions: recombinant CYP, pro-luciferin dealkylation, luminescence, p450-cyp2c9; series mostly up to 57.1 µM; for activity, negative = inhibition: % is set by controls: 0 for no effect and ±100 for the full control effect
In all, about 16,000 compounds went through this assay and about 4,000 (25%) were called active. About 26% were inconclusive and are not listed. Not all results are given here.
Parameter: activity, negative = inhibition. Scope: all listed entries.

SAMPLE_SMILES	activity, negative = inhibition
CCN(CC)C[C@@H](O)c1ccc2ccc3ccccc3c2c1	-3.91% [at 11.4 µM] (inactive)
O=C(O)/C=C\C(=O)Nc1ncn[nH]1	-8.21% [at 11.4 µM] (inactive)
Cc1ccc2c(c1)N[C@H](c1ccc(C(=O)O)cc1)c1cccn1-2	-25.1% [at 11.4 µM] (inactive)

Per the records, this molecule ( Cc1cnc(CNc2cc(-c3ccccc3CN(C)C)ncn2)cn1 ) has activity, negative = inhibition equal to 10.9% [at 2.29 µM] (inactive)

For record CC(C)(C)c1ccc(OCC(=O)O)c(Cl)c1 the listed activity, negative = inhibition is -19.9% [at 11.4 µM] (inactive)

---

target: Cytochrome P450 2C9 (Homo sapiens); assay: Cytochrome panel assay with activity outcomes; settings: recombinant CYP, pro-luciferin dealkylation, luminescence, p450-cyp2c9; series mostly up to 57.1 µM
Among all 16,000 compounds or so, about 4,000 (25%) were called active. Not shown: some 26% with an inconclusive outcome. Calls come from the whole dose curve; as a rule, active = well fitted curve in the direction sought with a large enough effect; inconclusive = small, poorly fitted or top-dose-only effect, or effect the other way; inactive = no such curve, though single readings can be large or run the other way. A selection follows.
Respond using exactly one of the listed classes: active, inactive

Known results for compounds:
COMPOUND	CLASS_LABEL
Cc1c(C(=O)NN2CCN(C)CC2)cccc1[N+](=O)[O-]	inactive
OC(CCCN1CCCCC1)(c1ccccc1)c1ccccc1	inactive
O=[N+]([O-])c1cc(/C=N/O)ccc1SCc1ccccc1	inactive

Name the outcome recorded for CN1CCN(C2=Nc3ccccc3Oc3ccc(Cl)cc32)CC1 in the assay.
inactive

Hello, I am checking results. What call was entered for C[C@H](CCC(=O)NCC(=O)O)[C@H]1CC[C@H]2[C@H]3[C@@H](C[C@@H](O)[C@]12C)[C@]1(C)CC[C@H](O)C[C@@H]1C[C@@H]3O ?
inactive

Recorded test call requested for CCCC(=O)Nc1nc2n(n1)C(c1ccccc1)CC(=O)N2 (configuration not stated)
inactive

What did the test return for O=C(CSc1nnc(CNc2ccc(F)cc2)o1)N1c2ccccc2Sc2ccccc21 ?
active

Tell me the assay call for Cn1c(=O)c2c3c(sc2n2cnnc12)CCC3 please.
inactive

Per the assay record, what outcome was assigned to Oc1cc2c(c(Cl)c1O)CCNC[C@H]2c1ccccc1 ?
inactive

Name the outcome recorded for CCN(CC)C(=O)CSc1nnc(CNc2ccc(F)cc2)o1 in the assay.
inactive

Recorded test call requested for N#C/C(=C\Nc1ccccn1)C(=O)c1ccco1
active

Tell me the assay call for CC(C)CN1CCC2(CC1)CCN(C(=O)c1cccc(F)c1)CC2 please.
inactive

Record request — test call for CC(=O)c1cnc2cc(C)nn2c1C
inactive

What is the recorded call for this compound in the test? CCN(CC)C(=O)C1CCCN(c2ccc([N+](=O)[O-])cc2/C=N/NC(=O)c2ccc([N+](=O)[O-])cc2)C1 (configuration not stated)
active

Lab log entry: CCn1ccnc1C[C@@H]1COc2ccccc2O1 — outcome as called in the assay?
inactive

Would you mind telling me which call this test gave N#Cc1ccc(C(=O)Nc2ccc(N3CCN(C(=O)c4ccco4)CC3)cc2)c(F)c1 ?
inactive

Tell me the assay call for COc1ccc(-c2ccc3c(n2)CCCN3C[C@H](O)CN2CCCc3nc(C)c(C)cc32)cc1 please.
active

State the result this test recorded for Cc1ccc(Nc2nc(Cl)nc(N(C)C#N)n2)cc1 .
active

Dear all, I need the recorded test outcome for CC(=O)N1CCC[C@@]2(CCN(c3ncccn3)C2)C1 , thank you.
inactive

For CC(=O)N1CCC[C@@]2(CCN(c3ccncc3)C2)C1 , what call appears in the results of this test?
inactive

Write down the call the test reported for this compound. Item: COC(=O)CC[C@@H](C)[C@H]1CC[C@H]2[C@H]3CC[C@H]4C[C@@H]5CC[C@@]4(C)C3(O5)[C@@H](Br)[C@@H](Br)[C@@]12C
active

Hi, sorry to bother you, what did the test record for O=C(Oc1ccccc1)N1CCC2(CC1)CN(c1ccncc1)C2 ?
active

Hello, the source for this data is PubChem BioAssay AID1851, in case you need it.
